Known pKi of a selection of compounds
Biological target: σ1-receptor (Cavia porcellus (Guinea pig))
Assay: σ1-receptor binding assay, [3H]-(+)-pentazocine displacement in brain membranes
Conditions: radioligand [3H]-(+)-pentazocine 5.0 nM
Reminder that pKi means the negative base-10 logarithm of the concentration expressed in mol/L.

Example entries begin here.
compound: Cl.O=C(Nc1ncnc2c1cnn2CCN1CCCCCC1)C12C3CC4CC1CC42C3 [Example 22, hydrochloride]
pKi: 7.82
//
compound: CCCNC(=O)Nc1ncnc2c1cnn2CCN1CCCOCC1 [Example 44]
pKi: 6.60
//
compound: CCCNC(=O)Nc1ncnc2c1cnn2CCCCN1CCC(C(C)(C)C)CC1 [Example 93]
pKi: 6.55
//
compound: CC(=O)N(C)c1ncnc2c1cnn2CCN1CCCCCC1 [Example 101]
pKi: 6.66
//
compound: CC(C)(C)c1cc(C(=O)Nc2ncnc3c2cnn3CCN2CCCCC2)cc(C(C)(C)C)c1.Cl [Example 9, hydrochloride]
pKi: 6.16

Query :: Name the reported pKi value associated with the compound CNC(=S)Nc1ncnc2c1cnn2CCN1CCCCCC1.O=C(O)/C=C\C(=O)O [Example 76, maleate]
Result :: 7.83

Query :: I would be grateful if you could share the reported pKi for Cc1ccc(C)n1-c1ncnc2c1cnn2CCN1CCCCC1 [Example 105] .
Result :: 6.13

Query :: Query (compound): CC(C)N(CCn1ncc2c(NC(=O)C3CCCCC3)ncnc21)C(C)C.O=C(O)/C=C\C(=O)O [Example 16, maleate] ; field requested: pKi
Result :: 6.61

---

Target: σ1-receptor (Cavia porcellus (Guinea pig))
Test: σ1-receptor binding assay, [3H]-(+)-pentazocine displacement in brain membranes
Settings: radioligand [3H]-(+)-pentazocine 5.0 nM
# Ki annotations
// return the numeric value with its unit appended

compound: CC(C)N(CCn1ncc2c(NC(=O)C34C5CC6CC3CC64C5)ncnc21)C(C)C.Cl [Example 21, hydrochloride]
recorded-value: 55 nM

Query :: Give its Ki value. Item: CCCNC(=O)Nc1ncnc2c1cnn2CCN1CCC(C(C)(C)C)CC1
Result :: 212 nM

Query :: Ki for CC(C)N1CCN(CCn2ncc3c(NC(=O)C45CC6CC(CC(C6)C4)C5)ncnc32)CC1.O=C(O)/C=C\C(=O)O [Example 31, maleate] ?
Result :: 573 nM

Query :: Item under review: CCCNC(=O)Nc1ncnc2c1cnn2CCCN1CCCCCC1 . Reported Ki?
Result :: 102 nM

---

Reported pKi values follow for various molecules
Molecular target: σ1-receptor (Cavia porcellus (Guinea pig), UniProt Q60492)
Sequence (Q60492 whole entry): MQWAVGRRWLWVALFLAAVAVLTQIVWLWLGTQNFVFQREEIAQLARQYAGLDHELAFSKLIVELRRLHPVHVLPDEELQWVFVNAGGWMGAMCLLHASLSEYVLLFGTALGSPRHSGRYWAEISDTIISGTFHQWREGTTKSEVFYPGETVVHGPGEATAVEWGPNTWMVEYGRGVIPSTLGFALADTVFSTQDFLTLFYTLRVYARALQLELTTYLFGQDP
Test: σ1-receptor binding assay, [3H]-(+)-pentazocine displacement in brain membranes
Conditions: radioligand [3H]-(+)-pentazocine 5.0 nM
Kindly note that pKi refers to -log10 of the concentration in mol/L and answer with the value alone.

molecule: CC(C)N(CCn1ncc2c(NC(=O)NC(C)(C)C)ncnc21)C(C)C.Cl [Example 61, hydrochloride]
pKi: 6.09

In the following, a different molecule is considered.
Query :: Need pKi, item CC(C)N(CCn1ncc2c(NC(=O)C34CC5CC(CC(C5)C3)C4)ncnc21)C(C)C.O=C(O)/C=C\C(=O)O [Example 18, maleate]
Result :: 7.25

---

Target: σ1-receptor (Cavia porcellus (Guinea pig))
Assay: σ1-receptor binding assay, [3H]-(+)-pentazocine displacement in brain membranes
Settings: compound at 10^−6 M, radioligand [3H]-(+)-pentazocine 5.0 nM
Experimental: Guinea pig brains were homogenized in 10 vols. (w/v) of Tris-HCl 50 mM 0.32 M sucrose, pH 7.4, with a Kinematica Polytron PT 3000 at 15000 r.p.m. for 30 s. The homogenate was centrifuged at 1000 g for 10 min at 4° C. and the supernatants collected and centrifuged again at 48000 g for 15 min at 4° C. […] The radioligand used was [^3H]-(+)-pentazocine at 5.0 nM and the final volume was 200 μl. […] Nonspecific binding was determined with 1 μM haloperidol.
endpoint-label: % Displacement (10^−6 M) (%)
Form entry: value (%) — number only.

Sample records with % Displacement (10^−6 M):
chemical-string: CC(C)N(CCn1ncc2c(NC(=O)C34CC5CC(CC(C5)C3)C4)ncnc21)C(C)C.O=C(O)/C=C\C(=O)O
% Displacement (10^−6 M) / %: 90.2
--
chemical-string: CNC(=S)Nc1ncnc2c1cnn2CCN1CCCCCC1.O=C(O)/C=C\C(=O)O
% Displacement (10^−6 M) / %: 96.8
--
chemical-string: CC(C)(C)c1cc(C(=O)Nc2ncnc3c2cnn3CCN2CCCCC2)cc(C(C)(C)C)c1.Cl
% Displacement (10^−6 M) / %: 49.50

Query :: Dear colleague, I am looking for the recorded % Displacement (10^−6 M) of the following compound: Cl.O=C(Nc1ncnc2c1cnn2CCN1CCCCCC1)C12C3CC4CC1CC42C3
Result :: 97.2

Query :: Requested read-out: % Displacement (10^−6 M). Entry: CC(C)N(CCn1ncc2c(NC(=O)NC(C)(C)C)ncnc21)C(C)C.Cl
Result :: 25.9

Query :: Sample O=C(Nc1ccc(Cl)cc1Cl)Nc1ncnc2c1cnn2CCN1CCCCCC1.O=C(O)CC(O)(CC(=O)O)C(=O)O — what was its % Displacement (10^−6 M)?
Result :: 91.4

Query :: What value of measured % Displacement (10^−6 M) is listed for CC(C)N(CCn1ncc2c(NC(=O)C3CCCC3)ncnc21)C(C)C.O=C(O)/C=C\C(=O)O ?
Result :: 54.0

Query :: Look up % Displacement (10^−6 M): Cl.O=C(Nc1ncnc2c1cnn2CCN1CCCCC1)C1CCCCC1
Result :: 78.6
